Tested on: Escherichia coli TOP10
ASSAY COMMENT: shrunken log2 fold change of peptide-encoding DNA abundance (4.5 h post-induction vs induction); higher = less antimicrobial activity (less host growth inhibition)
EXPERIMENTAL CONDITIONS: time post-induction: 4.5 h; library: site-saturation at positions 5, 18, 19, 20
Exercise: for every item that follows, state its recorded shrunken log2 fold change.
Note: the reply should be a number with no unit written.

Briefly, shrunken log2 fold change measured for RRIRDRPPRLPRPRPRPIHQPRP : -0.241

Briefly, shrunken log2 fold change measured for RRIRGRPPRLPRPRPRPQWNPRP : 0.0405

Briefly, shrunken log2 fold change measured for RRIRIRPPRLPRPRPRPERLPRP : 0.0553

Briefly, shrunken log2 fold change measured for RRIRERPPRLPRPRPRPGWLPRP : 0.256

Briefly, shrunken log2 fold change measured for RRIRSRPPRLPRPRPRPTEWPRP : 0.00483

Briefly, shrunken log2 fold change measured for RRIRQRPPRLPRPRPRPSNLPRP : -0.11

Briefly, shrunken log2 fold change measured for RRIRQRPPRLPRPRPRPPVYPRP : -0.0643

Briefly, shrunken log2 fold change measured for RRIRMRPPRLPRPRPRPTIHPRP : -0.134

Briefly, shrunken log2 fold change measured for RRIRWRPPRLPRPRPRPFKAPRP : 0.0343

Briefly, shrunken log2 fold change measured for RRIRSRPPRLPRPRPRPYETPRP : -0.181

Briefly, shrunken log2 fold change measured for RRIRNRPPRLPRPRPRPHWIPRP : -0.322

Briefly, shrunken log2 fold change measured for RRIRPRPPRLPRPRPRPMNHPRP : -0.11

Briefly, shrunken log2 fold change measured for RRIRARPPRLPRPRPRPRWGPRP : 0.425

Briefly, shrunken log2 fold change measured for RRIRARPPRLPRPRPRPYHDPRP : -0.365

Briefly, shrunken log2 fold change measured for RRIRPRPPRLPRPRPRPKQTPRP : 0.327

----------
Tested on: Escherichia coli TOP10
ASSAY COMMENT: shrunken log2 fold change of peptide-encoding DNA abundance (4.5 h post-induction vs induction); higher = less antimicrobial activity (less host growth inhibition)
EXPERIMENTAL CONDITIONS: time post-induction: 4.5 h; library: site-saturation at positions 5, 18, 19, 20
shrunken log2 fold change vs -0.09: at or above is yes, below is no.

Inquiry: Evaluate RRIRWRPPRLPRPRPRPHNQPRP : shrunken log2 fold change at minimum -0.09?
Reply text: no

Inquiry: Evaluate RRIRVRPPRLPRPRPRPYNDPRP : shrunken log2 fold change at minimum -0.09?
Reply text: no

Inquiry: Evaluate RRIRMRPPRLPRPRPRPHYMPRP : shrunken log2 fold change at minimum -0.09?
Reply text: no

Inquiry: Evaluate RRIRKRPPRLPRPRPRPAHRPRP : shrunken log2 fold change at minimum -0.09?
Reply text: yes

Inquiry: Evaluate RRIRMRPPRLPRPRPRPHEIPRP : shrunken log2 fold change at minimum -0.09?
Reply text: yes

Inquiry: Evaluate RRIRCRPPRLPRPRPRPLIVPRP : shrunken log2 fold change at minimum -0.09?
Reply text: no

Inquiry: Evaluate RRIRMRPPRLPRPRPRPEGTPRP : shrunken log2 fold change at minimum -0.09?
Reply text: yes

Inquiry: Evaluate RRIRSRPPRLPRPRPRPDRQPRP : shrunken log2 fold change at minimum -0.09?
Reply text: yes

Inquiry: Evaluate RRIRLRPPRLPRPRPRPDPYPRP : shrunken log2 fold change at minimum -0.09?
Reply text: yes

Inquiry: Evaluate RRIRVRPPRLPRPRPRPDMVPRP : shrunken log2 fold change at minimum -0.09?
Reply text: yes

Inquiry: Evaluate RRIRARPPRLPRPRPRPYAHPRP : shrunken log2 fold change at minimum -0.09?
Reply text: no

Inquiry: Evaluate RRIRFRPPRLPRPRPRPQCAPRP : shrunken log2 fold change at minimum -0.09?
Reply text: yes

Inquiry: Evaluate RRIRGRPPRLPRPRPRPVLQPRP : shrunken log2 fold change at minimum -0.09?
Reply text: yes

Inquiry: Evaluate RRIRKRPPRLPRPRPRPRAPPRP : shrunken log2 fold change at minimum -0.09?
Reply text: yes

Inquiry: Evaluate RRIRRRPPRLPRPRPRPHGYPRP : shrunken log2 fold change at minimum -0.09?
Reply text: yes

Inquiry: Evaluate RRIRFRPPRLPRPRPRPIHEPRP : shrunken log2 fold change at minimum -0.09?
Reply text: no

Inquiry: Evaluate RRIRIRPPRLPRPRPRPWDDPRP : shrunken log2 fold change at minimum -0.09?
Reply text: no

Inquiry: Evaluate RRIRFRPPRLPRPRPRPYVNPRP : shrunken log2 fold change at minimum -0.09?
Reply text: no

Inquiry: Evaluate RRIRSRPPRLPRPRPRPEQTPRP : shrunken log2 fold change at minimum -0.09?
Reply text: yes

Inquiry: Evaluate RRIRSRPPRLPRPRPRPVLWPRP : shrunken log2 fold change at minimum -0.09?
Reply text: yes

Inquiry: Evaluate RRIRIRPPRLPRPRPRPGCKPRP : shrunken log2 fold change at minimum -0.09?
Reply text: yes

Inquiry: Evaluate RRIRERPPRLPRPRPRPGSIPRP : shrunken log2 fold change at minimum -0.09?
Reply text: yes

Inquiry: Evaluate RRIRHRPPRLPRPRPRPDWTPRP : shrunken log2 fold change at minimum -0.09?
Reply text: yes

Inquiry: Evaluate RRIRRRPPRLPRPRPRPAAIPRP : shrunken log2 fold change at minimum -0.09?
Reply text: yes

Inquiry: Evaluate RRIRSRPPRLPRPRPRPHAIPRP : shrunken log2 fold change at minimum -0.09?
Reply text: no

Inquiry: Evaluate RRIRTRPPRLPRPRPRPNEYPRP : shrunken log2 fold change at minimum -0.09?
Reply text: no

Inquiry: Evaluate RRIRARPPRLPRPRPRPEHWPRP : shrunken log2 fold change at minimum -0.09?
Reply text: yes

Inquiry: Evaluate RRIRSRPPRLPRPRPRPHILPRP : shrunken log2 fold change at minimum -0.09?
Reply text: yes

Inquiry: Evaluate RRIRNRPPRLPRPRPRPSLQPRP : shrunken log2 fold change at minimum -0.09?
Reply text: yes

Inquiry: Evaluate RRIRFRPPRLPRPRPRPGDGPRP : shrunken log2 fold change at minimum -0.09?
Reply text: yes

Inquiry: Evaluate RRIRTRPPRLPRPRPRPSGGPRP : shrunken log2 fold change at minimum -0.09?
Reply text: yes

----------
Tested on: Escherichia coli TOP10;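 further: peptides expressed intracellularly from a pBAD plasmid library in pooled LB shake-flask culture, induced with 0.3% L-arabinose, DNA abundance read by NGS, three biological replicates, DESeq2 with apeglm shrinkage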
ASSAY COMMENT: shrunken log2 fold change of peptide-encoding DNA abundance (4.5 h post-induction vs induction); higher = less antimicrobial activity (less host growth inhibition)
EXPERIMENTAL CONDITIONS: time post-induction: 4.5 h; library: site-saturation at positions 5, 18, 19, 20
shrunken log2 fold change vs 0.001: at or above is true, below is false.

Inquiry: Evaluate RRIRQRPPRLPRPRPRPDKDPRP : shrunken log2 fold change at minimum 0.001?
Reply text: false

Inquiry: Evaluate RRIRMRPPRLPRPRPRPTLVPRP : shrunken log2 fold change at minimum 0.001?
Reply text: true

Inquiry: Evaluate RRIRWRPPRLPRPRPRPWNTPRP : shrunken log2 fold change at minimum 0.001?
Reply text: false

Inquiry: Evaluate RRIRLRPPRLPRPRPRPEDPPRP : shrunken log2 fold change at minimum 0.001?
Reply text: true

Inquiry: Evaluate RRIRLRPPRLPRPRPRPLIYPRP : shrunken log2 fold change at minimum 0.001?
Reply text: false

Inquiry: Evaluate RRIRMRPPRLPRPRPRPWPYPRP : shrunken log2 fold change at minimum 0.001?
Reply text: true

Inquiry: Evaluate RRIRHRPPRLPRPRPRPYCHPRP : shrunken log2 fold change at minimum 0.001?
Reply text: false

Inquiry: Evaluate RRIRARPPRLPRPRPRPHYDPRP : shrunken log2 fold change at minimum 0.001?
Reply text: false

Inquiry: Evaluate RRIRIRPPRLPRPRPRPCWFPRP : shrunken log2 fold change at minimum 0.001?
Reply text: false

Inquiry: Evaluate RRIRIRPPRLPRPRPRPTCKPRP : shrunken log2 fold change at minimum 0.001?
Reply text: false

Inquiry: Evaluate RRIRFRPPRLPRPRPRPWAQPRP : shrunken log2 fold change at minimum 0.001?
Reply text: false

Inquiry: Evaluate RRIRGRPPRLPRPRPRPLGNPRP : shrunken log2 fold change at minimum 0.001?
Reply text: true

Inquiry: Evaluate RRIRCRPPRLPRPRPRPYKDPRP : shrunken log2 fold change at minimum 0.001?
Reply text: false

Inquiry: Evaluate RRIRYRPPRLPRPRPRPQCDPRP : shrunken log2 fold change at minimum 0.001?
Reply text: false

Inquiry: Evaluate RRIRERPPRLPRPRPRPSHQPRP : shrunken log2 fold change at minimum 0.001?
Reply text: false

Inquiry: Evaluate RRIRGRPPRLPRPRPRPETIPRP : shrunken log2 fold change at minimum 0.001?
Reply text: true

Inquiry: Evaluate RRIRERPPRLPRPRPRPTADPRP : shrunken log2 fold change at minimum 0.001?
Reply text: true

Inquiry: Evaluate RRIRQRPPRLPRPRPRPRFVPRP : shrunken log2 fold change at minimum 0.001?
Reply text: true

Inquiry: Evaluate RRIRRRPPRLPRPRPRPGFQPRP : shrunken log2 fold change at minimum 0.001?
Reply text: true

Inquiry: Evaluate RRIRMRPPRLPRPRPRPPASPRP : shrunken log2 fold change at minimum 0.001?
Reply text: true

Inquiry: Evaluate RRIRTRPPRLPRPRPRPSWIPRP : shrunken log2 fold change at minimum 0.001?
Reply text: false

Inquiry: Evaluate RRIRTRPPRLPRPRPRPQGYPRP : shrunken log2 fold change at minimum 0.001?
Reply text: false

Inquiry: Evaluate RRIRPRPPRLPRPRPRPRQLPRP : shrunken log2 fold change at minimum 0.001?
Reply text: true

Inquiry: Evaluate RRIRWRPPRLPRPRPRPLLTPRP : shrunken log2 fold change at minimum 0.001?
Reply text: true

Inquiry: Evaluate RRIRDRPPRLPRPRPRPKQFPRP : shrunken log2 fold change at minimum 0.001?
Reply text: false

Inquiry: Evaluate RRIRTRPPRLPRPRPRPRDCPRP : shrunken log2 fold change at minimum 0.001?
Reply text: true

Inquiry: Evaluate RRIRHRPPRLPRPRPRPQFGPRP : shrunken log2 fold change at minimum 0.001?
Reply text: false

Inquiry: Evaluate RRIRGRPPRLPRPRPRPVLWPRP : shrunken log2 fold change at minimum 0.001?
Reply text: true

Inquiry: Evaluate RRIRGRPPRLPRPRPRPKHYPRP : shrunken log2 fold change at minimum 0.001?
Reply text: true

Inquiry: Evaluate RRIRQRPPRLPRPRPRPGYVPRP : shrunken log2 fold change at minimum 0.001?
Reply text: false

Inquiry: Evaluate RRIRDRPPRLPRPRPRPYHYPRP : shrunken log2 fold change at minimum 0.001?
Reply text: false

Inquiry: Evaluate RRIRMRPPRLPRPRPRPPLRPRP : shrunken log2 fold change at minimum 0.001?
Reply text: true

Inquiry: Evaluate RRIRKRPPRLPRPRPRPATDPRP : shrunken log2 fold change at minimum 0.001?
Reply text: true

Inquiry: Evaluate RRIRIRPPRLPRPRPRPHVNPRP : shrunken log2 fold change at minimum 0.001?
Reply text: true

Inquiry: Evaluate RRIRERPPRLPRPRPRPYKRPRP : shrunken log2 fold change at minimum 0.001?
Reply text: false

Inquiry: Evaluate RRIRLRPPRLPRPRPRPAMQPRP : shrunken log2 fold change at minimum 0.001?
Reply text: true

Inquiry: Evaluate RRIRYRPPRLPRPRPRPRPSPRP : shrunken log2 fold change at minimum 0.001?
Reply text: true

Inquiry: Evaluate RRIRQRPPRLPRPRPRPEREPRP : shrunken log2 fold change at minimum 0.001?
Reply text: true

Inquiry: Evaluate RRIRMRPPRLPRPRPRPEGEPRP : shrunken log2 fold change at minimum 0.001?
Reply text: true

Inquiry: Evaluate RRIRMRPPRLPRPRPRPGWTPRP : shrunken log2 fold change at minimum 0.001?
Reply text: true

Inquiry: Evaluate RRIRMRPPRLPRPRPRPWFMPRP : shrunken log2 fold change at minimum 0.001?
Reply text: true

Inquiry: Evaluate RRIRPRPPRLPRPRPRPFNYPRP : shrunken log2 fold change at minimum 0.001?
Reply text: false

Inquiry: Evaluate RRIRFRPPRLPRPRPRPLEVPRP : shrunken log2 fold change at minimum 0.001?
Reply text: true

Inquiry: Evaluate RRIRNRPPRLPRPRPRPSDNPRP : shrunken log2 fold change at minimum 0.001?
Reply text: false

Inquiry: Evaluate RRIRKRPPRLPRPRPRPNDQPRP : shrunken log2 fold change at minimum 0.001?
Reply text: false

Inquiry: Evaluate RRIRKRPPRLPRPRPRPGWKPRP : shrunken log2 fold change at minimum 0.001?
Reply text: true

Inquiry: Evaluate RRIRHRPPRLPRPRPRPDDAPRP : shrunken log2 fold change at minimum 0.001?
Reply text: true

Inquiry: Evaluate RRIRLRPPRLPRPRPRPNKPPRP : shrunken log2 fold change at minimum 0.001?
Reply text: false

Inquiry: Evaluate RRIRNRPPRLPRPRPRPKFGPRP : shrunken log2 fold change at minimum 0.001?
Reply text: true

Inquiry: Evaluate RRIRDRPPRLPRPRPRPPPAPRP : shrunken log2 fold change at minimum 0.001?
Reply text: true

Inquiry: Evaluate RRIRARPPRLPRPRPRPCDWPRP : shrunken log2 fold change at minimum 0.001?
Reply text: true

Inquiry: Evaluate RRIRSRPPRLPRPRPRPLDSPRP : shrunken log2 fold change at minimum 0.001?
Reply text: false

Inquiry: Evaluate RRIRERPPRLPRPRPRPWRNPRP : shrunken log2 fold change at minimum 0.001?
Reply text: true

Inquiry: Evaluate RRIRRRPPRLPRPRPRPVGIPRP : shrunken log2 fold change at minimum 0.001?
Reply text: true

Inquiry: Evaluate RRIRTRPPRLPRPRPRPQGDPRP : shrunken log2 fold change at minimum 0.001?
Reply text: false

Inquiry: Evaluate RRIRCRPPRLPRPRPRPSDPPRP : shrunken log2 fold change at minimum 0.001?
Reply text: false

Inquiry: Evaluate RRIRWRPPRLPRPRPRPRCNPRP : shrunken log2 fold change at minimum 0.001?
Reply text: true

Inquiry: Evaluate RRIRDRPPRLPRPRPRPFDGPRP : shrunken log2 fold change at minimum 0.001?
Reply text: false

Inquiry: Evaluate RRIRYRPPRLPRPRPRPDQYPRP : shrunken log2 fold change at minimum 0.001?
Reply text: false

Inquiry: Evaluate RRIRSRPPRLPRPRPRPGKVPRP : shrunken log2 fold change at minimum 0.001?
Reply text: false

Inquiry: Evaluate RRIRDRPPRLPRPRPRPINCPRP : shrunken log2 fold change at minimum 0.001?
Reply text: false

Inquiry: Evaluate RRIRFRPPRLPRPRPRPQTTPRP : shrunken log2 fold change at minimum 0.001?
Reply text: true

Inquiry: Evaluate RRIRERPPRLPRPRPRPMPYPRP : shrunken log2 fold change at minimum 0.001?
Reply text: false
